tested-target: KDM4A (Homo sapiens, UniProt O75164)
Construct: encoding human KDM4A residues 1–350 with a GST-6xHis tag at the N-terminal; GST-6xHis (followed by TEV cleavage site) (N, cleaved yes); made in house; host or cells: T7 Express E. coli
Sequence (O75164 1-350): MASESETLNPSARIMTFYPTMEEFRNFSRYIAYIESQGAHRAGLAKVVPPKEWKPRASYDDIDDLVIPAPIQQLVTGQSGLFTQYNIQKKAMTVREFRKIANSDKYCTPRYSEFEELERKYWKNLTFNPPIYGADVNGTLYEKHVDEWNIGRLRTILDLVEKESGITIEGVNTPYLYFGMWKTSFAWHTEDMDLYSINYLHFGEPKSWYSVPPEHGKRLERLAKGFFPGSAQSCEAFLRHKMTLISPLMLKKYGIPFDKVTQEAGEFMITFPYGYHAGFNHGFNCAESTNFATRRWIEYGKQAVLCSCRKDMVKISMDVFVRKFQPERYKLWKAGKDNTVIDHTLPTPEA
assay-remarks: Enzymatic HTRF-based assay, inhibition of H3K9me3 peptide demethylation
Type: biochemical
particulars: read-out: Inhibition at 50 μM
Procedure: The plasmid pGEX4T2-JMJD2A encoding human KDM4A residues 1–350 with a GST-6xHis tag at the N-terminal, followed by Tobacco Etch Virus (TEV) cleavage site, was used for protein expression. The plasmid was used to transform T7 Express E.coli competent cells. […] Protein concentration was measured by using the predicted molar extinction coefficient (ε280 = 73,800 M^−1 cm^−1), and the purity verified by SDS-PAGE resulted > 95%. […]
Below: a set of entries, each annotated with reported inhibition at 50 µM.

Record excerpt, results attached:
## Task What does the record list as inhibition at 50 µM for COC(=O)c1ccnc(C(=O)NCc2ccccc2)c1 [Compound 5a, Methyl 2-(benzylcarbamoyl)isonicotinate] ?
## Result < 50%

## Task What does the record list as inhibition at 50 µM for CCCNC(=O)c1cc(C(=O)O)ccn1 [Compound 6c, 2-(Propylcarbamoyl)isonicotinic acid] ?
## Result > 90%

## Task What does the record list as inhibition at 50 µM for O=C(O)c1ccnc(C(=O)NCc2cnco2)c1 [Compound 6b] ?
## Result > 90%

## Task What does the record list as inhibition at 50 µM for COC(=O)c1ccnc(C(=O)NCc2nc3ccccc3n2C)c1 [Compound 5d] ?
## Result < 50%

Please look at the following molecule next.
## Task What does the record list as inhibition at 50 µM for O=C(O)c1ccnc(C(=O)NCc2ccccc2)c1 [Compound 6a, 2-(benzylcarbamoyl)isonicotinic acid] ?
## Result < 50%

Cited source for all entries: paper PMC10740270
